Parameter growth at 10 µM: see the listing below.
System: HCT-116
Experiment: Cytotoxicity against human HCT116 cells assessed as cell growth at 10^-5 M after 48 hrs by SRB assay
Assay type: functional
Conditions: HCT-116, 48 h, read-out: Activity
Please respond with the number in % and leave the unit unwritten.

# structure string, study system, assay value
records = [
    ("C=CCn1c(SC/C(=N\\O)c2ccccc2)nnc1-c1ccc(OC)c(OC)c1", "HCT-116", 112),
    ("COc1cc(-c2nnc(SC/C(=N/O)c3ccccc3)n2-c2ccccc2)cc(OC)c1OC", "HCT-116", 92.7),
    ("COc1ccc(-c2nnc(SC/C(=N/O)c3ccccc3)n2-c2ccccc2)cc1", "HCT-116", 93.2),
]

response.value for CCn1c(SC/C(=N/O)c2ccccc2)nnc1-c1ccccc1 (field: growth at 10 µM) = 101

The compound listed as O/N=C(/CSc1nnc(-c2ccccc2)n1-c1ccccc1)c1ccccc1 has a reported growth at 10 µM of 92.3

Form field growth at 10 µM, entry CCn1c(SC/C(=N/O)c2ccccc2)nnc1-c1ccc(OC)c(OC)c1 : 108

Documented growth at 10 µM of COc1ccc(-c2nnc(SC/C(=N/O)c3ccccc3)n2-c2ccccc2)cc1OC : 92
